# credit: the Immune Epitope Database (IEDB)

Measured Target: HLA-A*23:01
Measurement Protocol: IEDB peptide-MHC binding, purified MHC/competitive/radioactivity; filed as Kd, often an IC50 or EC50 that approximates it; bounds were set here for any values at or beyond the usual limits of such assays
Experimental Parameters: source organism: SARS coronavirus Tor2
pKd: −log10 of the molar value.
Endpoint Name: pKd

primary_sequence=HTSSMRGVY endpoint_name=pKd bound_type=≤ measured=4.11
primary_sequence=AYSNRNRFL endpoint_name=pKd bound_type== measured=6.18
primary_sequence=FFTYLCGFI endpoint_name=pKd bound_type== measured=4.86
primary_sequence=GYTMHANYIF endpoint_name=pKd bound_type== measured=7.79
primary_sequence=FFVYENAFL endpoint_name=pKd bound_type== measured=5.17
primary_sequence=LFARTRSMW endpoint_name=pKd bound_type== measured=6.31
primary_sequence=AFIDTIKSL endpoint_name=pKd bound_type== measured=5.30
primary_sequence=NYLRKRVMF endpoint_name=pKd bound_type== measured=4.95
primary_sequence=GSIIQFPNTY endpoint_name=pKd bound_type=≤ measured=4.15
primary_sequence=MYASALVLL endpoint_name=pKd bound_type=≤ measured=4.33
primary_sequence=FSAVGNICY endpoint_name=pKd bound_type=≤ measured=4.11

---

Measured Target: HLA-B*08:01
Measurement Protocol: IEDB peptide-MHC binding, purified MHC/competitive/radioactivity; filed as Kd, often an IC50 or EC50 that approximates it; bounds were set here for any values at or beyond the usual limits of such assays
Experimental Parameters: source organism: Vaccinia virus WR
pKd: −log10 of the molar value.
Think of 6 as a floor: if pKd stands on it or above, it is T; beneath it, F.

primary_sequence=NVEYRFLVI measured_target=HLA-B*08:01 label_class=T
primary_sequence=RIRNKFMFI measured_target=HLA-B*08:01 label_class=T
primary_sequence=IKYACKQIL measured_target=HLA-B*08:01 label_class=F
primary_sequence=AVAKYFSPL measured_target=HLA-B*08:01 label_class=T
primary_sequence=RVRNIIASI measured_target=HLA-B*08:01 label_class=T
primary_sequence=FLYSFFLCI measured_target=HLA-B*08:01 label_class=F
primary_sequence=SMNTIKQSF measured_target=HLA-B*08:01 label_class=T
primary_sequence=ITLTNVVNI measured_target=HLA-B*08:01 label_class=F
primary_sequence=SMLSIFNIV measured_target=HLA-B*08:01 label_class=F
primary_sequence=LLYAHINAL measured_target=HLA-B*08:01 label_class=T
primary_sequence=SIHEKFWPL measured_target=HLA-B*08:01 label_class=T
primary_sequence=GFKKRVNVF measured_target=HLA-B*08:01 label_class=T
primary_sequence=TVYAKFASL measured_target=HLA-B*08:01 label_class=T
primary_sequence=FIAKHFLEL measured_target=HLA-B*08:01 label_class=T

---

Measured Target: HLA-A*03:01
Measurement Protocol: IEDB peptide-MHC binding, purified MHC/direct/fluorescence; filed as Kd, often an IC50 or EC50 that approximates it; bounds were set here for any values at or beyond the usual limits of such assays
Experimental Parameters: source organism: Brucella abortus
pKd: −log10 of the molar value.
Endpoint Name: pKd

primary_sequence=RFRCVGPAP measured="≤ 4.70"

---

Measured Target: HLA-A*02:01
Measurement Protocol: IEDB peptide-MHC binding, purified MHC/direct/fluorescence; filed as Kd, often an IC50 or EC50 that approximates it; bounds were set here for any values at or beyond the usual limits of such assays
Experimental Parameters: source organism: Rickettsia sibirica
Endpoint Name: Kd

primary_sequence=ASDRISGIL endpoint_name=Kd measured="≥ 20 µM"

---

Measured Target: HLA-B*18:01
Measurement Protocol: IEDB peptide-MHC binding, purified MHC/competitive/radioactivity; filed as Kd, often an IC50 or EC50 that approximates it; bounds were set here for any values at or beyond the usual limits of such assays
Experimental Parameters: source organism: Mammarenavirus brazilense
Endpoint Name: Kd

primary_sequence=SDHLLSEML measured="≥ 77.5 µM"

---

Measured Target: HLA-A*02:06
Measurement Protocol: IEDB peptide-MHC binding, purified MHC/direct/fluorescence; filed as Kd, often an IC50 or EC50 that approximates it; bounds were set here for any values at or beyond the usual limits of such assays
Experimental Parameters: source organism: Mycobacterium tuberculosis str. Haarlem
pKd: −log10 of the molar value.
Endpoint Name: pKd

primary_sequence=RVACRDVEV endpoint_name=pKd measured=8.70

---

Measured Target: HLA-B*53:01
Measurement Protocol: IEDB peptide-MHC binding, purified MHC/competitive/radioactivity; filed as Kd, often an IC50 or EC50 that approximates it; bounds were set here for any values at or beyond the usual limits of such assays
Experimental Parameters: source organism: Dengue virus 3 Martinique/1243/1999
pKd: −log10 of the molar value.
Endpoint Name: pKd

primary_sequence=VMGITAEWLW endpoint_name=pKd measured=7.40

---

Measured Target: HLA-A*31:01
Measurement Protocol: IEDB peptide-MHC binding, purified MHC/competitive/radioactivity; filed as Kd, often an IC50 or EC50 that approximates it; bounds were set here for any values at or beyond the usual limits of such assays
Experimental Parameters: source organism: Vaccinia virus WR
pKd: −log10 of the molar value.
Think of 6 as a floor: if pKd stands on it or above, it is Met; beneath it, Not met.

primary_sequence=LITLILSNK label_class="Not met"
primary_sequence=FFTELENKK label_class="Not met"
primary_sequence=KFRPGSLIY label_class="Not met"
primary_sequence=EAVYGNIKHK label_class="Not met"
primary_sequence=YTYDRVDIYY label_class="Not met"
primary_sequence=SMRYQSLIPR label_class=Met
primary_sequence=LLTDTIESAK label_class="Not met"
primary_sequence=IPYLRNYMVI label_class="Not met"
primary_sequence=LIIYYQLAGY label_class="Not met"
primary_sequence=TVHKLTQDEK label_class="Not met"
primary_sequence=YALINLVQYR label_class=Met
primary_sequence=TSCSKNEAEK label_class="Not met"
primary_sequence=YLSDSDNIK label_class="Not met"
primary_sequence=YIYSEIKQGR label_class=Met
primary_sequence=NSTTDAEACY label_class="Not met"
primary_sequence=DVSLIIEYK label_class=Met
primary_sequence=YSGLTPEQK label_class="Not met"
primary_sequence=LSCIRNASK label_class=Met
primary_sequence=ILNKIVQLPK label_class="Not met"
primary_sequence=TVVRDFENY label_class="Not met"
primary_sequence=ISQFSYKELY label_class="Not met"

---

Measured Target: HLA-A*69:01
Measurement Protocol: IEDB peptide-MHC binding, purified MHC/direct/fluorescence; filed as Kd, often an IC50 or EC50 that approximates it; bounds were set here for any values at or beyond the usual limits of such assays
Experimental Parameters: source organism: Vibrio vulnificus
pKd: −log10 of the molar value.
The following sequences are listed with their measured pKd values.
Endpoint Name: pKd

primary_sequence=NGYRWQHQI endpoint_name=pKd bound_type== measured=7.76
primary_sequence=GSEVPGFCH endpoint_name=pKd bound_type=≤ measured=4.70

---

Measured Target: HLA-B*15:42
Measurement Protocol: IEDB peptide-MHC binding, purified MHC/competitive/fluorescence; filed as Kd, often an IC50 or EC50 that approximates it; bounds were set here for any values at or beyond the usual limits of such assays
Experimental Parameters: source organism: Mycobacterium tuberculosis C
Endpoint Name: Kd

primary_sequence=RLYQYSFAK measured="≥ 5 µM"

---

Measured Target: HLA-A*02:03
Measurement Protocol: IEDB peptide-MHC binding, purified MHC/direct/fluorescence; filed as Kd, often an IC50 or EC50 that approximates it; bounds were set here for any values at or beyond the usual limits of such assays
Experimental Parameters: source organism: Yersinia pestis CA88-4125
pKd: −log10 of the molar value.
Endpoint Name: pKd

primary_sequence=LPEAYQWHI endpoint_name=pKd measured="≤ 4.70"

---

The following sequences are listed with their measured Kd values.
Measured Target: HLA-A*68:01
Measurement Protocol: IEDB peptide-MHC binding, purified MHC/competitive/radioactivity; filed as Kd, often an IC50 or EC50 that approximates it; bounds were set here for any values at or beyond the usual limits of such assays
Experimental Parameters: source organism: Mammarenavirus machupoense
Endpoint Name: Kd (µM)

primary_sequence=EKFGHFCKYH bound_type=≥ measured=70.1
primary_sequence=LNNSFYYMR bound_type== measured=0.0153
primary_sequence=SSVSVLMKEH bound_type== measured=8.86

---

Measured Target: HLA-A*24:03
Measurement Protocol: IEDB peptide-MHC binding, purified MHC/direct/fluorescence; filed as Kd, often an IC50 or EC50 that approximates it; bounds were set here for any values at or beyond the usual limits of such assays
Experimental Parameters: source organism: Haemophilus influenzae
pKd: −log10 of the molar value.
Endpoint Name: pKd

primary_sequence=MTMRRRLFK measured="≤ 4.70"

---

Measured Target: HLA-B*15:01
Measurement Protocol: IEDB peptide-MHC binding, purified MHC/competitive/fluorescence; filed as Kd, often an IC50 or EC50 that approximates it; bounds were set here for any values at or beyond the usual limits of such assays
Experimental Parameters: source organism: Homo sapiens
The following sequences are listed with their measured Kd values.
Endpoint Name: Kd

primary_sequence=YSDNEMLTH endpoint_name=Kd measured="≥ 20 µM"
primary_sequence=SLFNWLWYE endpoint_name=Kd measured="≥ 20 µM"
